tested target: Rac GTPase-activating protein 1 (Homo sapiens, UniProt Q9H0H5)
Sequence (Q9H0H5 whole entry): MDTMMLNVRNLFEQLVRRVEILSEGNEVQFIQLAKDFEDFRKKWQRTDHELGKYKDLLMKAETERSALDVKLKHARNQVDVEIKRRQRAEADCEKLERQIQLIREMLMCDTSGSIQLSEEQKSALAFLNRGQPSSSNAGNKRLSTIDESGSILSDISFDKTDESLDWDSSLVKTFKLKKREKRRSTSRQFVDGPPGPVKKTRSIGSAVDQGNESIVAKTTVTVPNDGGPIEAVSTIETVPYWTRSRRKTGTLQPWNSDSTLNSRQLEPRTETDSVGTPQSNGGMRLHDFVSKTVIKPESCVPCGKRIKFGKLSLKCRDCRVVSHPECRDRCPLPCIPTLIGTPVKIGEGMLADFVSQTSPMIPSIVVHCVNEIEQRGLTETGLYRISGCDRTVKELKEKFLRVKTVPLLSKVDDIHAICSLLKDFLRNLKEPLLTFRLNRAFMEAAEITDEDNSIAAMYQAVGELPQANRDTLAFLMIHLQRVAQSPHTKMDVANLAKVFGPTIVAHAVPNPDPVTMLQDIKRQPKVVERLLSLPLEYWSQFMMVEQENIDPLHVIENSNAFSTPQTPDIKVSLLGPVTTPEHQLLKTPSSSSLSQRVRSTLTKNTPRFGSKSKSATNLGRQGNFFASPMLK
method description: MgcRacGAP GTPase-activating activity inhibitors, confirmation, biochemical, ADP Hunter fluorescence, primary and confirmatory (AID 624330)
Type: functional
Active and inactive are the calls of the source. No rule for the calls is given here.

[
  {
    "molecule": "CC1(C)CC[C@]2(C(=O)n3ccnc3)CC[C@]3(C)[C@H](C(=O)C=C4[C@@]5(C)C=C(C#N)C(=O)C(C)(C)[C@@H]5CC[C@]43C)[C@@H]2C1",
    "IC50": "20.7 µM (active)"
  },
  {
    "molecule": "O=C(c1cccs1)N1CCN(Cc2ccncc2)CC1",
    "IC50": "88.5 µM (active)"
  },
  {
    "molecule": "CN1C(=O)/C(=C/C=C2\\SCCN2C)N(C)C1=S",
    "IC50": "20 µM (active)"
  },
  {
    "molecule": "Cc1cc(C)n(CC(O)CN2c3ccccc3Sc3ccccc32)n1 (stereo not drawn)",
    "IC50": "82.6 µM (active)"
  },
  {
    "molecule": "CCN(CC)c1ccc(/C=N/Nc2nc(C)cc(C)n2)c(O)c1",
    "IC50": "62.8 µM (active)"
  },
  {
    "molecule": "CN(C)c1ccc(Sc2ccc3nc(N)nc(N)c3c2)cc1",
    "IC50": "50.2 µM (active)"
  },
  {
    "molecule": "CN(C)CCNC(C(=O)Nc1cccc(C(F)(F)F)c1)c1ccccc1 (stereo not drawn)",
    "IC50": "76.5 µM (active)"
  },
  {
    "molecule": "CCN(CC)c1ccc(NC(=O)COC(=O)CCc2cc(OC)c(OC)c(OC)c2)cc1",
    "IC50": "81.1 µM (active)"
  }
]

Data origin: ChEMBL document CHEMBL1201862
